These measurements were taken from paper PMC7321408.

Tested on: NO generated by LPS-induced macrophages
Measurement Protocol: Nitric oxide assay (Griess) in LPS-induced macrophages
Assay type: cell-based, murine
Test Settings: Mus musculus, Macrophage, 18 h, 100 µM, LPS 1 µg/mL; read-out: % NO Production (Mean ± SEM)
Mark Fulfilled for reported activity at 100 µM of 20% or greater; mark Not fulfilled for anything smaller.

Does Brc1ccc(NCN2CCCc3ccccc32)cc1 have a reported activity at 100 µM of at least 20%?
Fulfilled

Does Clc1cccc(NCN2CCCc3ccccc32)c1 have a reported activity at 100 µM of at least 20%?
Not fulfilled

Does c1ccc(N(CN2CCCc3ccccc32)c2ccccc2)cc1 have a reported activity at 100 µM of at least 20%?
Not fulfilled

Does c1ccc2c(c1)CCCN2CN1CCCCC1 have a reported activity at 100 µM of at least 20%?
Not fulfilled

Does c1ccc2c(c1)CCCN2CN1CCOCC1 have a reported activity at 100 µM of at least 20%?
Not fulfilled

Does COc1ccc(NCN2CCCc3ccccc32)cc1 have a reported activity at 100 µM of at least 20%?
Fulfilled
